- Assay notes: Cellular viability qHTS for adrenocortical cancer (ACC) cell line NCI-H295R (AID 1963990); also: nearly all actives have a fitted effect of over 60% in size; also: potency is read from the fitted curve at half-maximal effect
- Experimental conditions: CellTiter-Glo ATP luminescence, 48 h; series mostly up to 46.1 µM
Results filed as inconclusive are left out. The source made the active and inactive calls. Calls follow the shape of the dose curve; as a rule, active = well fitted cell-killing curve with a large enough effect; inconclusive = small, poorly fitted or top-dose-only effect; inactive = flat fitted curve, though single readings scatter.
Observable: Potency

| Substance smiles | Observable | Value reported |
| --- | --- | --- |
| COc1cc(/C=C/C(=O)O[C@H]2CC[C@]34C[C@]35CC[C@]3(C)[C@@H]([C@H](C)CCC=C(C)C)CC[C@@]3(C)[C@@H]5CC[C@H]4C2(C)C)ccc1O | Potency | 18.4 µM (active) |
| NC(=O)N1c2ccccc2C=Cc2ccccc21 | Potency | inactive |
| CN(C)CCN(C)C(=O)c1ccc(NC(=O)Nc2ccc(-c3nc(N4CCOCC4)c4ccn(CC(F)(F)F)c4n3)cc2)cc1 | Potency | 3.16 µM (active) |
| CC(C)C[C@H](NC(=O)[C@H](Cc1ccccc1)NC(=O)OCc1ccccc1)C(=O)C=O | Potency | inactive |
